test system: porcine liver esterase; assay: Porcine Liver Esterase Assay; type: in vitro ADME; details: pig; 60 units of porcine liver esterase, HEPES buffered saline, pH 7.4, 10% DMSO, 37° C.; read-out: Esterase stability (t1/2)* (converted)
Reported half-life is given for each of the following compounds.
Write the value in h as a bare number.

• CC1=C[C@]23C(=O)[C@@H](C=C(CO)[C@@H](O)[C@]2(O)[C@H]1OC(=O)c1ccc(Br)cc1C)[C@H]1[C@@H](C[C@H]3C)C1(C)C [Compound 6, o-methyl-p-bromo-benzoate ingenol ester] = 1

Here is another compound to look at.
Asked: Sample CCCCCCCCCC(=O)OCC1=C[C@@H]2C(=O)[C@]3(C=C(C)[C@H](OC(=O)c4ccc(Br)cc4C)[C@@]3(O)[C@@H]1O)[C@H](C)C[C@@H]1[C@H]2C1(C)C — what was its half-life?
Given back: 2

====

Listed next: entries and their corresponding Ki.
molecular target: Novel PKCδ (Homo sapiens); construct: a specific full-length PKC isoform was combined with Tris-HCl, KCl, CaCl2; experiment: PKC binding affinity, competitive radioligand assay against 3H-PDBu
Sequence (Q05655 whole entry, canonical isoform): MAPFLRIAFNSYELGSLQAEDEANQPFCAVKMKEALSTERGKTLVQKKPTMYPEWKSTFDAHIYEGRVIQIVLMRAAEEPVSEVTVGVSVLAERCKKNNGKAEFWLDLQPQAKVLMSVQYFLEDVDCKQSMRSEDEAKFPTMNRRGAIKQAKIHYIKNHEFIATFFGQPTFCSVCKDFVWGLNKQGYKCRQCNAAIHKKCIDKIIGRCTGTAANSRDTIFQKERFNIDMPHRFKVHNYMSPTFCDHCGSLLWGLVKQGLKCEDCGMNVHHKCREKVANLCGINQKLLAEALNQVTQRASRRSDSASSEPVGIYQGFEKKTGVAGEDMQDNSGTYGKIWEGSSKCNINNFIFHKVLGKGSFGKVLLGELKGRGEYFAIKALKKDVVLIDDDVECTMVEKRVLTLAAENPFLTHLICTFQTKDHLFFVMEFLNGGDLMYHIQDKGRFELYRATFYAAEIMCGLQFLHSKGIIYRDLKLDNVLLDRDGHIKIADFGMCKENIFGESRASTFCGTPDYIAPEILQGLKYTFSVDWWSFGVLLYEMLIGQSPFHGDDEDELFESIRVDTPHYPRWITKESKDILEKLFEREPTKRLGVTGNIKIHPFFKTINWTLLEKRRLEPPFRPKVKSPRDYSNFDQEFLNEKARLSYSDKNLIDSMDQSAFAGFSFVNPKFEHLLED
Expressed in µM, but write only the number.

Sample records with Ki:
- CCOC(=O)OCC1=C[C@H]2[C@@H]3C(C)(C)[C@]3(OC(=O)CC34CC5CC(CC(C5)C3)C4)C[C@@H](C)[C@]2(O)[C@@H]2C=C(C)C(=O)[C@@]2(O)C1: 0.38
- CCCCCCCCCC(=O)OCC1=C[C@H]2[C@@H]3C(C)(C)[C@]3(OC(=O)CC34CC5CC(CC(C5)C3)C4)C[C@@H](C)[C@]2(O)[C@@H]2C=C(C)C(=O)[C@@]2(O)C1: 9
- CC(=O)OCC1=C[C@H]2[C@@H]3C(C)(C)[C@]3(OC(=O)CC34CC5CC(CC(C5)C3)C4)C[C@@H](C)[C@]2(O)[C@@H]2C=C(C)C(=O)[C@@]2(O)C1: 9.4

Asked: Which value of Ki has been reported for CCCCCCCCNC(=O)OCC1=C[C@H]2[C@@H]3C(C)(C)[C@]3(OC(=O)CC34CC5CC(CC(C5)C3)C4)C[C@@H](C)[C@]2(O)[C@@H]2C=C(C)C(=O)[C@@]2(O)C1 in the records?
Given back: 2.9

====

assay: Hydrolytic Stability Assay; assay type: physicochemical; settings: buffer; HEPES buffered saline, pH 7.4, 10% DMSO, 37° C.; read-out: Hydrolytic stability (t1/2)
half-life at 400 μM listing for selected compounds.

Reference set, count: 5
* CCOC(=O)OCC1=C[C@H]2[C@@H]3C(C)(C)[C@]3(OC(=O)CC34CC5CC(CC(C5)C3)C4)C[C@@H](C)[C@]2(O)[C@@H]2C=C(C)C(=O)[C@@]2(O)C1 | > 168 h
* CC1=C[C@H]2[C@@]3(O)[C@H](C)C[C@]4(OC(=O)CC56CC7CC(CC(C7)C5)C6)[C@H]([C@@H]3C=C(COC(=O)c3ccccc3)C[C@]2(O)C1=O)C4(C)C | > 168 h
* CCCCCCCCNC(=O)OCC1=C[C@H]2[C@@H]3C(C)(C)[C@]3(OC(=O)CC34CC5CC(CC(C5)C3)C4)C[C@@H](C)[C@]2(O)[C@@H]2C=C(C)C(=O)[C@@]2(O)C1 | > 168 h
* CCCCCCCCCC(=O)OCC1=C[C@H]2[C@@H]3C(C)(C)[C@]3(OC(=O)CC34CC5CC(CC(C5)C3)C4)C[C@@H](C)[C@]2(O)[C@@H]2C=C(C)C(=O)[C@@]2(O)C1 | > 168 h
* CC(=O)OCC1=C[C@H]2[C@@H]3C(C)(C)[C@]3(OC(=O)CC34CC5CC(CC(C5)C3)C4)C[C@@H](C)[C@]2(O)[C@@H]2C=C(C)C(=O)[C@@]2(O)C1 | > 168 h

Asked: # lookup: half-life at 400 μM of CCCCCC(=O)OCC1=C[C@H]2[C@@H]3C(C)(C)[C@]3(OC(=O)CC34CC5CC(CC(C5)C3)C4)C[C@@H](C)[C@]2(O)[C@@H]2C=C(C)C(=O)[C@@]2(O)C1
Given back: > 1780 h

====

Tested on: porcine liver esterase
Test: Porcine Liver Esterase Assay
Assay type: in vitro ADME
Details: pig; 60 units of porcine liver esterase, HEPES buffered saline, pH 7.4, 10% DMSO, 37° C.; read-out: Esterase stability (t1/2)* (converted)
Procedure: Hydrolytic Stability Assay: A solution of 400 μM of parent compound or prodrug derivative with 2,4,6-trimethylphenol (800 μM, 107 μg) in HEPES buffered saline, pH 7.4, with 10% DMSO (total volume 1000 μL) was incubated at 37° C. […] The lyophilized material was then diluted with 100 μL acetonitrile, filtered, and analyzed by analytical HPLC. […] The lyophilized material was then diluted with 100 μL acetonitrile, filtered, and analyzed by analytical HPLC. […]
Entry flag: Satisfied if half-life at 400 μM reaches 30 h; Not satisfied if it does not.

Worked examples, 5 compounds total:
* CCCCCCCCCC(=O)OCC1=C[C@H]2[C@@H]3C(C)(C)[C@]3(OC(=O)CC34CC5CC(CC(C5)C3)C4)C[C@@H](C)[C@]2(O)[C@@H]2C=C(C)C(=O)[C@@]2(O)C1 [Compound 4c] | Not satisfied
* CCCCCCCCNC(=O)OCC1=C[C@H]2[C@@H]3C(C)(C)[C@]3(OC(=O)CC34CC5CC(CC(C5)C3)C4)C[C@@H](C)[C@]2(O)[C@@H]2C=C(C)C(=O)[C@@]2(O)C1 [Compound 4f] | Satisfied
* CCOC(=O)OCC1=C[C@H]2[C@@H]3C(C)(C)[C@]3(OC(=O)CC34CC5CC(CC(C5)C3)C4)C[C@@H](C)[C@]2(O)[C@@H]2C=C(C)C(=O)[C@@]2(O)C1 [Compound 4e] | Not satisfied
* CCCCCC(=O)OCC1=C[C@H]2[C@@H]3C(C)(C)[C@]3(OC(=O)CC34CC5CC(CC(C5)C3)C4)C[C@@H](C)[C@]2(O)[C@@H]2C=C(C)C(=O)[C@@]2(O)C1 [Compound 4b] | Not satisfied
* CC(=O)OCC1=C[C@H]2[C@@H]3C(C)(C)[C@]3(OC(=O)CC34CC5CC(CC(C5)C3)C4)C[C@@H](C)[C@]2(O)[C@@H]2C=C(C)C(=O)[C@@]2(O)C1 [Compound 4a] | Not satisfied

Note: attention shifts to another entry.
Asked: In plain terms: is recorded half-life at 400 μM at least 30 h for CC1=C[C@H]2[C@@]3(O)[C@H](C)C[C@]4(OC(=O)CC56CC7CC(CC(C7)C5)C6)[C@H]([C@@H]3C=C(COC(=O)c3ccccc3)C[C@]2(O)C1=O)C4(C)C [Compound 4d] ?
Given back: Satisfied

====

Entries and their measured pKi follow.
Biological target: Conventional PKCβI (Homo sapiens)
Construct: a specific full-length PKC isoform was combined with Tris-HCl, KCl, CaCl2
Sequence (P05771 whole entry, canonical isoform): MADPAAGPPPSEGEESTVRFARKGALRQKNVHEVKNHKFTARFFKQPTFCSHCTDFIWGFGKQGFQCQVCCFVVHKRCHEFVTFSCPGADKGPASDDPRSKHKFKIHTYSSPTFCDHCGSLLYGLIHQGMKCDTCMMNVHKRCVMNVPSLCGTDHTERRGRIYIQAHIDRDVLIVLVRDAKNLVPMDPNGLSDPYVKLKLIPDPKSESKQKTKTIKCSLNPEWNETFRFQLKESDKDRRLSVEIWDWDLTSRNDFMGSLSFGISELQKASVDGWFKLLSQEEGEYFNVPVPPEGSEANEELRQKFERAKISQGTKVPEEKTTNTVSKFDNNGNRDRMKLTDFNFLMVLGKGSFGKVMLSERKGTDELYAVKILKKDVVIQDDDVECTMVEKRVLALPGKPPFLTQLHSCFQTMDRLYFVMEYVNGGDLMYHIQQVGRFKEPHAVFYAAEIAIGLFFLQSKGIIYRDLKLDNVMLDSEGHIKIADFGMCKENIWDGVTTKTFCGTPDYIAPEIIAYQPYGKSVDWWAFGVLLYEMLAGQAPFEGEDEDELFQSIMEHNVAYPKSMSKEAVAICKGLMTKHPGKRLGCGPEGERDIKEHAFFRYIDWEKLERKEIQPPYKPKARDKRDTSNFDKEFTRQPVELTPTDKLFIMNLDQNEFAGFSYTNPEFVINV
Experiment: PKC binding affinity, competitive radioligand assay against 3H-PDBu
Experimental: Testing of Compounds for PKC Binding Affinity: A heterogeneous competitive radioligand assay against ^3H-phorbol-12,13-dibutyrate (^3H-PDBu) was used to generate PKC binding constant (Ki) values. […] After addition of [^3H]PDBu, these samples were incubated, filtered through filters previously wetted with polyethyleneimine and the filters were washed with Tris buffer. […] Ki values were calculated by the equation: Ki=IC50/(1+[^3H-PDBu])/KD of ^3H-PDBu).
pKi: −log10 of the molar value.

• CC1=C[C@H]2[C@@]3(O)[C@H](C)C[C@]4(OC(=O)CC56CC7CC(CC(C7)C5)C6)[C@H]([C@@H]3C=C(COC(=O)c3ccccc3)C[C@]2(O)C1=O)C4(C)C = < 6.30

Asked: Recorded pKi of CCCCCC(=O)OCC1=C[C@H]2[C@@H]3C(C)(C)[C@]3(OC(=O)CC34CC5CC(CC(C5)C3)C4)C[C@@H](C)[C@]2(O)[C@@H]2C=C(C)C(=O)[C@@]2(O)C1 , please.
Given back: < 5.60

====

Entries and their half-life values follow.
assay: Hydrolytic Stability Assay; type: physicochemical; details: buffer; HEPES buffered saline, pH 7.4, 10% DMSO, 37° C.; read-out: Hydrolytic stability (t1/2) (converted)
Phrase the answer as number then unit, nothing more needed.

* CCCCCCCCCC(=O)OCC1=C[C@@H]2C(=O)[C@]3(C=C(C)[C@H](OC(=O)c4ccc(Br)cc4C)[C@@]3(O)[C@@H]1O)[C@H](C)C[C@@H]1[C@H]2C1(C)C | 2 h

Next:
Asked: Using the record for CC1=C[C@]23C(=O)[C@@H](C=C(CO)[C@@H](O)[C@]2(O)[C@H]1OC(=O)c1ccc(Br)cc1C)[C@H]1[C@@H](C[C@H]3C)C1(C)C [Compound 6, o-methyl-p-bromo-benzoate ingenol ester] , report its half-life.
Given back: 18 h

These data points were gathered from patent US11370743B2.
